test: qHTS RealTime-Glo MT Cell Viability Assay in HepG2 cells - 16 hour (AID 1224885); conditions: RealTime-Glo luminescence; series mostly up to 76.8 µM; also: % is scaled to controls: 0 for no effect and ±100 for the full control effect; nearly all actives have a fitted effect of over 50% in size
Results filed as inconclusive are left out. The source made the active and inactive calls. Calls follow the shape of the dose curve; as a rule, active = well fitted cell-killing curve with a large enough effect in the repeat runs; inconclusive = weak or mixed curves; inactive = flat fitted curve, though single readings scatter.
MEASURE: outcome

[[record]]
smiles_str = "C[C@H]1C[C@H](O)c2ccsc2S1(=O)=O"
experimental_result = "inactive"

[[record]]
smiles_str = "O[C@@H]1CO[C@H]2[C@@H]1OC[C@@H]2O"
experimental_result = "inactive"

[[record]]
smiles_str = "C=C1c2cccc(O)c2C(O)=C2C(=O)[C@]3(O)C(O)=C(C(N)=O)C(=O)[C@@H](N(C)C)[C@@H]3[C@@H](O)[C@H]12"
experimental_result = "inactive"


----------
assay: qHTS assay to identify small molecule agonists of the estrogen related receptor (ERR) signaling pathway from Tox21 library (AID 1224849); conditions: ERR reporter cell line, ONE-Glo luciferase, 18 h; at 92.4 µM (top of the series) unless noted; also: % is scaled to controls: 0 for no effect and ±100 for the full control effect; nearly all actives have a fitted effect of over 15% in size
Activity calls are given as the source filed them. Calls follow the shape of the full dose curve.
activity change, positive = activation overview

Completed entries (count: 5):
[[record]]
molecule = "Oc1cccc(O)c1O"
measure = "activity change, positive = activation"
experimental_result = "0.0681% (inactive)"

[[record]]
molecule = "OC[C@H]1O[C@@H](n2cnc3c(=S)nc[nH]c32)[C@H](O)[C@@H]1O"
measure = "activity change, positive = activation"
experimental_result = "-47.1% [at 42.5 µM] (inactive)"

[[record]]
molecule = "C=C1c2cccc(O)c2C(O)=C2C(=O)[C@]3(O)C(O)=C(C(N)=O)C(=O)[C@@H](N(C)C)[C@@H]3[C@@H](O)[C@H]12"
measure = "activity change, positive = activation"
experimental_result = "-14.2% [at 42.5 µM] (inactive)"

[[record]]
molecule = "Cc1ccccc1N=C(N)Nc1ccccc1C"
measure = "activity change, positive = activation"
experimental_result = "-3.25% (inactive)"

[[record]]
molecule = "CC(C)(C)CC(=O)OCC(=O)[C@@]1(O)CC[C@H]2[C@@H]3CCC4=CC(=O)C=C[C@]4(C)[C@H]3[C@@H](O)C[C@@]21C"
measure = "activity change, positive = activation"
experimental_result = "-49.3% [at 42.5 µM] (inactive)"


Any idea what its activity change, positive = activation is? The molecule is CN1CCCC(CC2c3ccccc3Sc3ccccc32)C1 (stereo unspecified)
-39.8% [at 42.5 µM] (inactive)

# iterate: c1ccc(C[n+]2cccc3ccccc32)cc1
-48.3% (inactive)

# iterate: Oc1ccc(Cl)c2cccnc12
-56.3% [at 42.5 µM] (inactive)

# iterate: Cc1cccc(N(C)C(=S)Oc2ccc3c(c2)CCC3)c1
-21.2% [at 42.5 µM] (inactive)

# iterate: CCCCCCCCCI
3.18% (inactive)

# iterate: CC(C)C[C@H](NC(=O)[C@H](CCc1ccccc1)NC(=O)CN1CCOCC1)C(=O)N[C@@H](Cc1ccccc1)C(=O)N[C@@H](CC(C)C)C(=O)[C@@]1(C)CO1
-67.1% [at 42.5 µM] (inactive)

----------
assay: qHTS assay to identify small molecule HDAC inhibitors (AID 1259364); details: HCT-116 HDAC-Glo I/II luminescence, 2 h; series mostly up to 92.4 µM;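 also: wild-type HCT-116 cells with endogenous class I/II HDAC activity; top concentration of the series differs between compounds; % is scaled to controls: 0 for no effect and ±100 for the full control effect; nearly all actives have a fitted effect of over 45% in size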
Inconclusive results are not listed. Active and inactive are the calls of the source. The call rests on the fitted dose curve; in most records, active means well fitted inhibition curve with a large enough effect in the repeat runs; inconclusive means weak or mixed curves; inactive means flat fitted curve, though single readings scatter.
Your response should consist of one outcome taken from 1 for active, 0 for inactive

[[record]]
compound = "CC(CC1c2ccccc2CCc2ccccc21)CN(C)C (stereo not given)"
group_label = 0

[[record]]
compound = "Cc1ccccc1N=C(N)Nc1ccccc1C"
group_label = 0


Lab note: next compound to report on.
Hi, do you know how CCC(C)(C)OC came out in this test?
0

----------
assay: Caspase-3/7 induction in HepG2 cells by small molecules, qHTS cell viability counter screen (AID 1346981); conditions: CellTiter-Fluor fluorescence, 17 h; series mostly up to 92.4 µM; also: nearly all actives have a fitted effect of over 30% in size; also: potency is read from the fitted curve at half-maximal effect
Results filed as inconclusive are left out. Activity calls are given as the source filed them. The call rests on the fitted dose curve; in most records, active means well fitted cell-killing curve with a large enough effect in the repeat runs; inconclusive means weak or mixed curves, or effect the other way; inactive means flat fitted curve, though single readings scatter.
MEASURE: Potency

Completed entries (count: 7):
[[record]]
compound = "CC1=C(CC=O)C(C)(C)CCC1"
experimental_result = "inactive"

[[record]]
compound = "O=C(OC(=O)c1ccccc1)c1ccccc1"
experimental_result = "inactive"

[[record]]
compound = "CC(=O)Nc1cc(S(=O)(=O)O)cc2cc(S(=O)(=O)O)c(N=Nc3ccccc3)c(O)c12"
experimental_result = "24.3 µM (active)"

[[record]]
compound = "C=CC(=O)OCC1CC2CC1C1CCC(COC(=O)C=C)C21 (stereo not drawn)"
experimental_result = "inactive"

[[record]]
compound = "c1ccc2c(c1)CCc1ccccc1N2"
experimental_result = "inactive"

[[record]]
compound = "Cc1ccccc1N=C(N)Nc1ccccc1C"
experimental_result = "inactive"

[[record]]
compound = "Cc1cc(C)c(N)cc1C"
experimental_result = "inactive"


Proceed to the following item.
Any idea what its Potency is? The compound is O=[N+]([O-])c1cc(C2CCCCC2)c(O)c([N+](=O)[O-])c1
15.3 µM (active)

----------
assay: qHTS assay to identify small molecule antagonists of the sonic hedgehog signaling (Shh) pathway - cell viability counter screen (AID 1259367); settings: NIH/3T3 Gli1-Luc viability, CellTiter-Fluor, 24 h; series mostly up to 92.4 µM; also: % is scaled to controls: 0 for no effect and ±100 for the full control effect; nearly all actives have a fitted effect of over 55% in size
Results filed as inconclusive are left out. The source made the active and inactive calls. Calls come from the whole dose curve; as a rule, active = well fitted cell-killing curve with a large enough effect in the repeat runs; inconclusive = weak or mixed curves, or effect the other way; inactive = no such curve, though single readings can be large or run the other way.
Your response should consist of one outcome taken from active, inactive

[[record]]
compound = "CCCCCCNC(=O)n1cc(F)c(=O)[nH]c1=O"
group_label = "inactive"


Lab note: next compound to report on.
Hi, do you know how CCN(CC)CCNC(=O)COc1ccc(OC)cc1 came out in this test?
inactive

----------
Test: qHTS RealTime-Glo MT Cell Viability Assay in HepG2 cells - 40 hour (AID 1224870); also: % is scaled to controls: 0 for no effect and ±100 for the full control effect; nearly all actives have a fitted effect of over 50% in size
Conditions: RealTime-Glo luminescence; series mostly up to 76.8 µM
Source text: National Center for Advancing Translational Sciences [NCATS] NIH Chemical Genomics Center [NCGC] U.S. Environmental Protection Agency [EPA] National Institutes of Environmental Health Sciences [NIEHS] National Toxicology Program [NTP] U.S. Food and Drug Administration [FDA] Measure of cell viability is critical in the cell-base assay. Analysis of cell viability is necessary for the characterization of cell responses to cytotoxic drugs and environmental stress. […]
Inconclusive results are not listed. Calls of active or inactive are those of the source. Calls follow the shape of the dose curve; as a rule, active = well fitted cell-killing curve with a large enough effect in the repeat runs; inconclusive = weak or mixed curves, or effect the other way; inactive = flat fitted curve, though single readings scatter.
Your response should consist of one outcome taken from true for active, false for inactive

[[record]]
molecule = "Cc1ccc(CO)cc1"
group_label = "false"

[[record]]
molecule = "C=Cc1ccc(S(=O)(=O)O)cc1"
group_label = "false"

[[record]]
molecule = "O=C(O)c1cccc(-c2noc(-c3ccccc3F)n2)c1"
group_label = "false"

[[record]]
molecule = "C[C@]1(Cn2ccnn2)[C@H](C(=O)O)N2C(=O)C[C@H]2S1(=O)=O"
group_label = "false"

[[record]]
molecule = "CC(C)(C)CC(=O)OCC(=O)[C@@]1(O)CC[C@H]2[C@@H]3CCC4=CC(=O)C=C[C@]4(C)[C@H]3[C@@H](O)C[C@@]21C"
group_label = "false"

[[record]]
molecule = "CCCCCC#CC(=O)OC"
group_label = "false"

[[record]]
molecule = "COc1ncnc(NS(=O)(=O)c2ccc(N)cc2)c1OC"
group_label = "false"

[[record]]
molecule = "Cc1c(C)c2c(c(C)c1OC(=O)CCC(=O)OCCO)CC[C@@](C)(CCC[C@H](C)CCC[C@H](C)CCCC(C)C)O2"
group_label = "false"


Hi, do you know how NC1[C@H]2CN(c3nc4c(cc3F)c(=O)c(C(=O)O)cn4-c3ccc(F)cc3F)C[C@@H]12 (some centres not stated) came out in this test?
false

----------
assay: qHTS assay to identify small molecule antagonists of the vitamin D receptor (VDR) signaling pathway - cell viability counter screen (AID 743225); conditions: VDR-bla HEK293T viability, CellTiter-Glo luminescence, 16 h; series mostly up to 61 µM; also: % is scaled to controls: 0 for no effect and ±100 for the full control effect; nearly all actives have a fitted effect of over 50% in size
Results filed as inconclusive are left out. The source made the active and inactive calls. Calls follow the shape of the dose curve; as a rule, active = well fitted cell-killing curve with a large enough effect in the repeat runs; inconclusive = weak or mixed curves, or effect the other way; inactive = no such curve, though single readings can be large or run the other way.
Your response should consist of one outcome taken from Yes (active), No (inactive)

[[record]]
compound = "C=C(C)C(=O)OCCCCCCCCCCCCC"
group_label = "No"

[[record]]
compound = "CC(=O)c1ccc([N+](=O)[O-])cc1"
group_label = "No"


Hi, do you know how Nc1ccc(N=Nc2ccccc2)c(N)c1 came out in this test?
No

# iterate: CC(C)Nc1cccnc1N1CCN(C(=O)c2cc3cc(NS(C)(=O)=O)ccc3[nH]2)CC1
No

# iterate: CC(C)=CC(=O)C=C(C)C
No

# iterate: CCCC(=O)C(=O)O
No

# iterate: CC(C)(c1ccccc1)c1ccccc1
No

----------
molecular target: Cytochrome P450 3A4 (Homo sapiens); assay: Cytochrome P450 Family 3 Subfamily A Member 4 (CYP3A4) small molecule antagonists: luciferase reporter qHTS assay (AID 1671201); conditions: P450-Glo CYP3A4 enzyme, luciferin luminescence, 1 h; series mostly up to 115 µM; also: nearly all actives have a fitted effect of over 50% in size; also: potency is read from the fitted curve at half-maximal effect
Results filed as inconclusive are left out. Calls of active or inactive are those of the source. Calls come from the whole dose curve; as a rule, active = well fitted inhibition curve with a large enough effect in the repeat runs; inconclusive = weak or mixed curves; inactive = no such curve, though single readings can be large or run the other way.
MEASURE: Potency

Completed entries (count: 10):
[[record]]
molecule = "C[C@]12CC[C@@H]3c4ccc(O)cc4CC[C@H]3[C@@H]1CC[C@@H]2OC(=O)CCC1CCCC1"
experimental_result = "inactive"

[[record]]
molecule = "CS(=O)(=O)c1ccc(-c2cn3ccccc3n2)cc1"
experimental_result = "inactive"

[[record]]
molecule = "O=C(/C=C/c1ccc(O)c(O)c1)O[C@@H]1C[C@@](OC(=O)/C=C/c2ccc(O)c(O)c2)(C(=O)O)C[C@@H](O)[C@@H]1O"
experimental_result = "inactive"

[[record]]
molecule = "CC=C(Cl)Cl"
experimental_result = "inactive"

[[record]]
molecule = "CC1(C)O[C@@H]2C[C@H]3[C@@H]4C[C@H](F)C5=CC(=O)C=C[C@]5(C)[C@H]4[C@@H](O)C[C@]3(C)[C@]2(C(=O)CO)O1"
experimental_result = "4.9 µM (active)"

[[record]]
molecule = "CC1=C(Br)C(=O)C(Br)=C/C1=C(/c1ccccc1S(=O)(=O)O)c1cc(Br)c(O)c(Br)c1C"
experimental_result = "24.2 µM (active)"

[[record]]
molecule = "O=C1C(=O)c2ccccc2C(O)=C1C1CCC(c2ccc(Cl)cc2)CC1 (configuration not stated)"
experimental_result = "inactive"

[[record]]
molecule = "CCC(OCCCOC)OC(C)=O (configuration not stated)"
experimental_result = "inactive"

[[record]]
molecule = "Nc1ccc(N=Nc2ccccc2)c(N)c1"
experimental_result = "11 µM (active)"

[[record]]
molecule = "C[C@H]1C[C@H](O)c2ccsc2S1(=O)=O"
experimental_result = "inactive"


Any idea what its Potency is? The molecule is C=CC(C)(CCC=C(C)C)OC(=O)CC(C)C (configuration not stated)
35.6 µM (active)

# iterate: Oc1ccc(Cl)c2cccnc12
inactive

Numbers sourced from PubChem BioAssay (Tox21).
